Reference for the values: paper PMC10364322

Test system: hiPSC-CMs (iCell-Cardiomyocytes^2)
Particulars: 1 µM, 2h
Measurement type: FPDc (field-potential duration corrected by beat-rate), % change from baseline (%)
Return type: number; implicit unit %.

Quick one: FPDc (field-potential duration corrected by beat-rate), % change from baseline for CCN(CC)CCNC(=O)c1c(C)[nH]c(/C=C2\C(=O)Nc3ccc(F)cc32)c1C [Sunitinib] ?
128.9

Next record, please: Cc1cn(-c2cc(NC(=O)c3ccc(C)c(Nc4nccc(-c5cccnc5)n4)c3)cc(C(F)(F)F)c2)cn1 [Nilotinib]
70.6

Next record, please: C[C@H](CS)C(=O)N1CCC[C@H]1C(=O)O [Captopril]
0.8

Next record, please: C#Cc1cccc(Nc2ncnc3cc(OCCOC)c(OCCOC)cc23)c1 [Erlotinib]
3.8

Next record, please: CC(C)(Sc1cc(C(C)(C)C)c(O)c(C(C)(C)C)c1)Sc1cc(C(C)(C)C)c(O)c(C(C)(C)C)c1 [Probucol]
1.1

***
Quick one: FPDc (field-potential duration corrected by beat-rate), % change from baseline for COc1cccc2c1C(=O)c1c(O)c3c(c(O)c1C2=O)C[C@@](O)(C(=O)CO)C[C@@H]3O[C@H]1C[C@H](N)[C@H](O)[C@H](C)O1 [Doxorubicin] ?
4.2

Next record, please: N=C(N)c1ccc(OCCCCCOc2ccc(C(=N)N)cc2)cc1 [Pentamidine]
2.5

Next record, please: COc1nc(N)nc2c1ncn2[C@@H]1O[C@H](COP(=O)(N[C@@H](C)C(=O)OCC(C)(C)C)Oc2cccc3ccccc23)[C@@H](O)[C@@]1(C)O (some centres unmarked) [BMS-986094]
-1.8

Next record, please: CC1(C)S[C@@H]2[C@H](NC(=O)[C@H](N)c3ccc(O)cc3)C(=O)N2[C@H]1C(=O)O [Amoxicillin]
1.6

Next record, please: O=C(O)COCCN1CCN(C(c2ccccc2)c2ccc(Cl)cc2)CC1 (centres unmarked) [Cetirizine]
4.5

Next record, please: COc1cc2c(Nc3ccc(Br)cc3F)ncnc2cc1OCC1CCN(C)CC1 [Vandetanib]
110.2

* * *

Tested on: hiPSC-CMs (iCell-Cardiomyocytes^2)
Particulars: 0.3 µM, 48h
Measured FPDc (field-potential duration corrected by beat-rate), % change from baseline, listed per entry.
Return type: number; implicit unit %.

Known results for compounds:
Short answer please: FPDc (field-potential duration corrected by beat-rate), % change from baseline, hiPSC-CMs (iCell-Cardiomyocytes^2), entry CCN(CC)CCNC(=O)c1c(C)[nH]c(/C=C2\C(=O)Nc3ccc(F)cc32)c1C
87.2

Next record, please: O=C(O)COCCN1CCN(C(c2ccccc2)c2ccc(Cl)cc2)CC1 (centres unmarked)
10.4

Next record, please: COc1cc2c(Nc3ccc(Br)cc3F)ncnc2cc1OCC1CCN(C)CC1
99.2

Shift focus to the following entry.
Short answer please: FPDc (field-potential duration corrected by beat-rate), % change from baseline, hiPSC-CMs (iCell-Cardiomyocytes^2), entry C#Cc1cccc(Nc2ncnc3cc(OCCOC)c(OCCOC)cc23)c1
11.5

* * *

System: hiPSC-CMs (iCell-Cardiomyocytes^2)
Particulars: 3 µM; 48h
Measured Flat T-wave-like, number of observations/total well numbers, listed per entry.

Known results for molecules:
Short answer please: Flat T-wave-like, number of observations/total well numbers, hiPSC-CMs (iCell-Cardiomyocytes^2), entry COc1nc(N)nc2c1ncn2[C@@H]1O[C@H](COP(=O)(N[C@@H](C)C(=O)OCC(C)(C)C)Oc2cccc3ccccc23)[C@@H](O)[C@@]1(C)O (stereo partly drawn)
4/5

Next record, please: CC(C)(Sc1cc(C(C)(C)C)c(O)c(C(C)(C)C)c1)Sc1cc(C(C)(C)C)c(O)c(C(C)(C)C)c1
0/5

Next record, please: N=C(N)c1ccc(OCCCCCOc2ccc(C(=N)N)cc2)cc1
0/6

Next record, please: C#Cc1cccc(Nc2ncnc3cc(OCCOC)c(OCCOC)cc23)c1
0/5

***
Short answer please: Flat T-wave-like, number of observations/total well numbers, hiPSC-CMs (iCell-Cardiomyocytes^2), entry COc1cccc2c1C(=O)c1c(O)c3c(c(O)c1C2=O)C[C@@](O)(C(=O)CO)C[C@@H]3O[C@H]1C[C@H](N)[C@H](O)[C@H](C)O1
0/5

Next record, please: COc1cc2c(Nc3ccc(Br)cc3F)ncnc2cc1OCC1CCN(C)CC1
0/5

* * *

Tested on: hiPSC-CMs (iCell-Cardiomyocytes^2)
Particulars: 1 µM, 48h
Measured FPD (field-potential duration), % change from baseline, listed per entry.
Return type: number; implicit unit %.

Known results for compounds:
Quick one: FPD (field-potential duration), % change from baseline for COc1nc(N)nc2c1ncn2[C@@H]1O[C@H](COP(=O)(N[C@@H](C)C(=O)OCC(C)(C)C)Oc2cccc3ccccc23)[C@@H](O)[C@@]1(C)O (stereo partly shown) ?
-5.8

Next record, please: CC1(C)S[C@@H]2[C@H](NC(=O)[C@H](N)c3ccc(O)cc3)C(=O)N2[C@H]1C(=O)O
4.3

Next record, please: N=C(N)c1ccc(OCCCCCOc2ccc(C(=N)N)cc2)cc1
21.1

Shift focus to the following entry.
Quick one: FPD (field-potential duration), % change from baseline for C[C@H](CS)C(=O)N1CCC[C@H]1C(=O)O ?
11.5

* * *

System: hiPSC-CMs (iCell-Cardiomyocytes^2)
Particulars: 1 µM, 96h
Measurement type: Cessation of beating, number of observations/total well numbers

Quick one: Cessation of beating, number of observations/total well numbers for COc1cc2c(Nc3ccc(Br)cc3F)ncnc2cc1OCC1CCN(C)CC1 [Vandetanib] ?
4/5

Next record, please: COc1nc(N)nc2c1ncn2[C@@H]1O[C@H](COP(=O)(N[C@@H](C)C(=O)OCC(C)(C)C)Oc2cccc3ccccc23)[C@@H](O)[C@@]1(C)O (stereo partly shown) [BMS-986094]
0/5

Next record, please: Cc1cn(-c2cc(NC(=O)c3ccc(C)c(Nc4nccc(-c5cccnc5)n4)c3)cc(C(F)(F)F)c2)cn1 [Nilotinib]
0/5

Shift focus to the following entry.
Quick one: Cessation of beating, number of observations/total well numbers for N=C(N)c1ccc(OCCCCCOc2ccc(C(=N)N)cc2)cc1 [Pentamidine] ?
0/6

* * *

Measured BR (beating rate), % change from baseline, listed per entry.
System: hiPSC-CMs (iCell-Cardiomyocytes^2)
Particulars: 10 µM; 96h
Return type: number; implicit unit %.

Known results for molecules:
Quick one: BR (beating rate), % change from baseline for C[C@H](CS)C(=O)N1CCC[C@H]1C(=O)O ?
-17

Next record, please: CC(C)(Sc1cc(C(C)(C)C)c(O)c(C(C)(C)C)c1)Sc1cc(C(C)(C)C)c(O)c(C(C)(C)C)c1
48

Next record, please: CC1(C)S[C@@H]2[C@H](NC(=O)[C@H](N)c3ccc(O)cc3)C(=O)N2[C@H]1C(=O)O
-19

Next record, please: CC(=O)Oc1ccccc1C(=O)O
-17

***
Quick one: BR (beating rate), % change from baseline for COc1nc(N)nc2c1ncn2[C@@H]1O[C@H](COP(=O)(N[C@@H](C)C(=O)OCC(C)(C)C)Oc2cccc3ccccc23)[C@@H](O)[C@@]1(C)O (some centres unmarked) ?
29

* * *

Measured BR (beating rate), % change from baseline, listed per entry.
System: hiPSC-CMs (iCell-Cardiomyocytes^2)
Particulars: 0.3 µM, 72h
Return type: number; implicit unit %.

Short answer please: BR (beating rate), % change from baseline, hiPSC-CMs (iCell-Cardiomyocytes^2), entry CCN(CC)CCNC(=O)c1c(C)[nH]c(/C=C2\C(=O)Nc3ccc(F)cc32)c1C
-38

Next record, please: O=C(O)COCCN1CCN(C(c2ccccc2)c2ccc(Cl)cc2)CC1 (stereo not shown)
-4

Next record, please: COc1cc2c(Nc3ccc(Br)cc3F)ncnc2cc1OCC1CCN(C)CC1
-40

***
Short answer please: BR (beating rate), % change from baseline, hiPSC-CMs (iCell-Cardiomyocytes^2), entry CC(C)(Sc1cc(C(C)(C)C)c(O)c(C(C)(C)C)c1)Sc1cc(C(C)(C)C)c(O)c(C(C)(C)C)c1
-6

* * *

Measured Cessation of beating, number of observations/total well numbers, listed per entry.
Test system: hiPSC-CMs (iCell-Cardiomyocytes^2)
Particulars: 3 µM, 96h
Method: Cells were seeded according to the instructions of the cell provider, in fibronectin-coated 48-well MEA plates (Axion Cytoview Plates, M768-tMEA-48B) at a density suited to form a monolayer (i.e., 50 K/well) and maintained in culture in a stage incubator (37°C, 5% CO2). […] The potential presence of various arrhythmic events was evaluated and noted during the data analysis. […]

Known results for compounds:
Short answer please: Cessation of beating, number of observations/total well numbers, hiPSC-CMs (iCell-Cardiomyocytes^2), entry CC(C)(Sc1cc(C(C)(C)C)c(O)c(C(C)(C)C)c1)Sc1cc(C(C)(C)C)c(O)c(C(C)(C)C)c1
0/5

Next record, please: C#Cc1cccc(Nc2ncnc3cc(OCCOC)c(OCCOC)cc23)c1
0/5

Next record, please: N=C(N)c1ccc(OCCCCCOc2ccc(C(=N)N)cc2)cc1
5/6

Next record, please: COc1nc(N)nc2c1ncn2[C@@H]1O[C@H](COP(=O)(N[C@@H](C)C(=O)OCC(C)(C)C)Oc2cccc3ccccc23)[C@@H](O)[C@@]1(C)O (stereo partly drawn)
1/5

***
Short answer please: Cessation of beating, number of observations/total well numbers, hiPSC-CMs (iCell-Cardiomyocytes^2), entry COc1cccc2c1C(=O)c1c(O)c3c(c(O)c1C2=O)C[C@@](O)(C(=O)CO)C[C@@H]3O[C@H]1C[C@H](N)[C@H](O)[C@H](C)O1
5/5

Next record, please: COc1cc2c(Nc3ccc(Br)cc3F)ncnc2cc1OCC1CCN(C)CC1
5/5
